target-entity: T1, ZFP SBS#829 (synthetic)
T1 chain: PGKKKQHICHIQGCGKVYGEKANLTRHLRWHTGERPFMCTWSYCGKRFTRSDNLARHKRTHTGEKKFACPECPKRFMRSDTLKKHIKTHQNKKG
experimental-protocol: EMSA
condition-label: tags: MBP fusion
quantity-kind: Kd
Express your answer as a number followed by its unit.

[Q] For the binder GCGGAGGACC (dsDNA) DNA 1: GCGGAGGACC DNA 2: GGTCCTCCGC , give its measured Kd value.
[A] 0.52 nM
